Experiment: in vivo
Conditions: rat, iv, read-out: LD50-value (acute intravenous toxicity)
# LD50 per record follows

>  <compound>
CC(COc1ccccc1)N[C@@H](CO)[C@H](O)c1ccccc1 (stereo partly shown) [Compound 5]

>  <LD50>
45 mg/kg

$$$$
>  <compound>
CC(COc1ccccc1)N[C@@H](CO)[C@@H](O)c1ccccc1 (single isomer, unassigned; (+)) [Compound 3]

>  <LD50>
21.5 mg/kg

$$$$
>  <compound>
CC(COc1ccccc1)N[C@@H](CO)[C@@H](O)c1ccccc1 (relative stereo) [Compound 2]

>  <LD50>
11 mg/kg

$$$$
>  <compound>
CC(C)N[C@@H](CO)[C@@H](O)c1ccccc1 [Compound 1]

>  <LD50>
140 mg/kg

$$$$
